- PROTOCOL DETAILS: Example 3: Phase 1 study of ketoconazole 200 mg twice daily with mifepristone 600 mg once daily with food, plasma PK incl. cross-study comparison
- Type: in vivo, human
- ASSAY CONTEXT: Day 17 vs Day 12
RECORDED ENDPOINT: effect of ketoconazole on exposure (90% CI vs standard 80:125 interval)

{"SUBSTANCE SMILES": "CC#C[C@]1(O)CC[C@H]2[C@@H]3CCC4=CC(=O)CCC4=C3[C@@H](c3ccc(N(C)C)cc3)C[C@@]21C", "REPORTED VALUE": "increased"}
{"SUBSTANCE SMILES": "CN(C)c1ccc([C@H]2C[C@@]3(C)[C@@H](CC[C@@]3(O)C#CCO)[C@@H]3CCC4=CC(=O)CCC4=C32)cc1", "REPORTED VALUE": "increased"}
{"SUBSTANCE SMILES": "CC#C[C@]1(O)CC[C@H]2[C@@H]3CCC4=CC(=O)CCC4=C3[C@@H](c3ccc(N)cc3)C[C@@]21C", "REPORTED VALUE": "not affected"}
{"SUBSTANCE SMILES": "CC#C[C@]1(O)CC[C@H]2[C@@H]3CCC4=CC(=O)CCC4=C3[C@@H](c3ccc(NC)cc3)C[C@@]21C", "REPORTED VALUE": "not affected"}

###

- PROTOCOL DETAILS: Example 3: Phase 1 study of ketoconazole 200 mg twice daily with mifepristone 600 mg once daily with food, plasma PK incl. cross-study comparison
- Type: in vivo, human
- ASSAY CONTEXT: Day 17 with 200 mg ketoconazole twice daily, Day 12 mifepristone alone
RECORDED ENDPOINT: concentrations on Day 17 compared with Day 12

{"SUBSTANCE SMILES": "CC#C[C@]1(O)CC[C@H]2[C@@H]3CCC4=CC(=O)CCC4=C3[C@@H](c3ccc(N)cc3)C[C@@]21C", "REPORTED VALUE": "similar"}
{"SUBSTANCE SMILES": "CC#C[C@]1(O)CC[C@H]2[C@@H]3CCC4=CC(=O)CCC4=C3[C@@H](c3ccc(NC)cc3)C[C@@]21C", "REPORTED VALUE": "similar"}
{"SUBSTANCE SMILES": "CC#C[C@]1(O)CC[C@H]2[C@@H]3CCC4=CC(=O)CCC4=C3[C@@H](c3ccc(N(C)C)cc3)C[C@@]21C", "REPORTED VALUE": "higher"}
{"SUBSTANCE SMILES": "CN(C)c1ccc([C@H]2C[C@@]3(C)[C@@H](CC[C@@]3(O)C#CCO)[C@@H]3CCC4=CC(=O)CCC4=C32)cc1", "REPORTED VALUE": "higher"}

###

- PROTOCOL DETAILS: Example 2: effect of a 400 mg single dose of ketoconazole on PK of an 8-day regimen of 300 mg or 600 mg OD mifepristone, moderate fat breakfast
- Format: in vivo, human
- ASSAY CONTEXT: male, human, plasma, oral, MIFE 300 mg/d, C1 Day 8, + 400 mg Keto single dose; read-out: T1/2 (mean) (converted)
RECORDED ENDPOINT: half-life (h)

{"COMPOUND": "CC#C[C@]1(O)CC[C@H]2[C@@H]3CCC4=CC(=O)CCC4=C3[C@@H](c3ccc(N(C)C)cc3)C[C@@]21C [mifepristone]", "REPORTED VALUE": 84.9}

###

- PROTOCOL DETAILS: Example 2: effect of a 400 mg single dose of ketoconazole on PK of an 8-day regimen of 300 mg or 600 mg OD mifepristone, moderate fat breakfast
- Format: in vivo, human
- ASSAY CONTEXT: male, human, plasma, oral, 300 mg/d, MIFE 300 mg/d, C1 Day 7, no ketoconazole; read-out: AUCt (AUC0-24 hours, mean)
RECORDED ENDPOINT: AUC(0-t) (ng·h/mL)

{"SUBSTANCE SMILES": "CC#C[C@]1(O)CC[C@H]2[C@@H]3CCC4=CC(=O)CCC4=C3[C@@H](c3ccc(N(C)C)cc3)C[C@@]21C", "UNITS SYMBOL": "ng·h/mL", "REPORTED VALUE": 37700}

###

- PROTOCOL DETAILS: Example 1: effect of oral ketoconazole (400 mg OD or 200 mg BID) on plasma pharmacokinetics of a 300 mg single dose of mifepristone, fasted
- Assay type: in vivo, human
- ASSAY CONTEXT: male, human, plasma, oral, MIFE 300 mg single dose fasted + Keto 200 mg BID (Cohort 2), plasma
- Text: This study was an open-label study in healthy male subjects. Healthy male volunteers between the ages of 18 to 45 years of age with a body mass index (BMI) ranging between 19 and 32 kg/m2 and a weight of at least 60 kg (132 lbs) were enrolled. Subjects had no clinically significant abnormal findings on the physical examination, ECG, blood pressure, heart rate, medical history, or clinical laboratory results during screening. The QTc interval at screening was less than 450 msec. […]
RECORDED ENDPOINT: Cmax

{"COMPOUND": "CC#C[C@]1(O)CC[C@H]2[C@@H]3CCC4=CC(=O)CCC4=C3[C@@H](c3ccc(N(C)C)cc3)C[C@@]21C [mifepristone]", "REPORTED VALUE": "4140 ng/mL"}

###

- PROTOCOL DETAILS: Example 1: effect of oral ketoconazole (400 mg OD or 200 mg BID) on plasma pharmacokinetics of a 300 mg single dose of mifepristone, fasted
- Assay type: in vivo, human
- ASSAY CONTEXT: male, human, plasma, oral, MIFE 300 mg single dose fasted + Keto 400 mg OD (Cohort 1); read-out: Tmax (median)
RECORDED ENDPOINT: Tmax (h)

{"COMPOUND": "CC#C[C@]1(O)CC[C@H]2[C@@H]3CCC4=CC(=O)CCC4=C3[C@@H](c3ccc(N(C)C)cc3)C[C@@]21C [mifepristone]", "REPORTED VALUE": 2}

###

Listing: Cmax Ratio % Test/Ref (cross-study, geometric mean ratio) of selected molecules
- PROTOCOL DETAILS: Example 3: Phase 1 study of ketoconazole 200 mg twice daily with mifepristone 600 mg once daily with food, plasma PK incl. cross-study comparison
- Type: in vivo, human
- ASSAY CONTEXT: Test: Present Study Day 17 600 mg mifepristone OD + 200 mg Ketoconazole BID; Reference: Historic Study Day 7 1200 mg mifepristone OD alone; after 34% fat meal
RECORDED ENDPOINT: Cmax Ratio % Test/Ref (cross-study, geometric mean ratio) (%)

{"SUBSTANCE SMILES": "CC#C[C@]1(O)CC[C@H]2[C@@H]3CCC4=CC(=O)CCC4=C3[C@@H](c3ccc(NC)cc3)C[C@@]21C", "REPORTED VALUE": 96.31}
{"SUBSTANCE SMILES": "CC#C[C@]1(O)CC[C@H]2[C@@H]3CCC4=CC(=O)CCC4=C3[C@@H](c3ccc(N(C)C)cc3)C[C@@]21C", "REPORTED VALUE": 84.64}
{"SUBSTANCE SMILES": "CC#C[C@]1(O)CC[C@H]2[C@@H]3CCC4=CC(=O)CCC4=C3[C@@H](c3ccc(N)cc3)C[C@@]21C", "REPORTED VALUE": 82.45}
{"SUBSTANCE SMILES": "CN(C)c1ccc([C@H]2C[C@@]3(C)[C@@H](CC[C@@]3(O)C#CCO)[C@@H]3CCC4=CC(=O)CCC4=C32)cc1", "REPORTED VALUE": 116.55}

###

Measured AUC0-24 Ratio % Test/Reference (geometric mean ratio) by item
- PROTOCOL DETAILS: Example 3: Phase 1 study of ketoconazole 200 mg twice daily with mifepristone 600 mg once daily with food, plasma PK incl. cross-study comparison
- Format: in vivo, human
- ASSAY CONTEXT: Test: Day 17 600 mg mifepristone OD + 200 mg Ketoconazole BID; Reference: Day 12 600 mg mifepristone OD
RECORDED ENDPOINT: AUC0-24 Ratio % Test/Reference (geometric mean ratio) (%)

{"SUBSTANCE SMILES": "CC#C[C@]1(O)CC[C@H]2[C@@H]3CCC4=CC(=O)CCC4=C3[C@@H](c3ccc(N(C)C)cc3)C[C@@]21C", "REPORTED VALUE": 138.01}
{"SUBSTANCE SMILES": "CC#C[C@]1(O)CC[C@H]2[C@@H]3CCC4=CC(=O)CCC4=C3[C@@H](c3ccc(N)cc3)C[C@@]21C", "REPORTED VALUE": 94.88}
{"SUBSTANCE SMILES": "CN(C)c1ccc([C@H]2C[C@@]3(C)[C@@H](CC[C@@]3(O)C#CCO)[C@@H]3CCC4=CC(=O)CCC4=C32)cc1", "REPORTED VALUE": 166.86}
{"SUBSTANCE SMILES": "CC#C[C@]1(O)CC[C@H]2[C@@H]3CCC4=CC(=O)CCC4=C3[C@@H](c3ccc(NC)cc3)C[C@@]21C", "REPORTED VALUE": 102.33}

Where do the numbers come from? From patent US20170281651A1.
